tested on: MDA-MB-435; assay: NCI tumour cell line growth inhibition, 48 h
QUANTITY_MEASURED: TGI (µM)
Give bare numbers, in µM.

Example entries begin here.
CCOC(=O)c1cccc(NC(=O)CI)c1 | 0.797
C=C1C[C@H](O)[C@H](Br)C(C)(C)C12CCC(C)(Cl)C(Br)C2 (some centres not stated) | 11.7
COc1cc([N+](=O)[O-])c(OC)cc1-c1nc2sccn2c1/C=N/N=C(N)N | 52.3

Proceed to the following item.
Exercise: Entry CCOc1ccc(N/C(=C(/C(Cl)=C(/Cl)NC(C)(C)C)[N+](=O)[O-])n2nnc3ccccc32)cc1 has what TGI?
Key: 33.6
